This collection of values is drawn from ChEMBL document CHEMBL1944538.

assay.protocol: Cytotoxicity against human MDA-MB-435 cells assessed as cell viability at 0.3 to 100 uM after 24 hrs by MTT assay
Assay type: cell-based
settings: read-out: Activity
Positions of bridges follow the written chain, without caps; N, C: chain ends. Residues, ends and D or L forms follow the SMILES beside them.

{"molecule": "CC[C@H](C)[C@H](NC(=O)[C@@H]1CCCN1C(=O)CNC(=O)CNC(=O)[C@H](CCCNC(=N)N)NC(=O)CNC(=O)[C@@H](NC(=O)[C@H](Cc1ccccc1)NC(=O)[C@H](Cc1ccc(O)cc1)NC(=O)[C@@H]1CSSC[C@H](N)C(=O)NCC(=O)N[C@@H](C)C(=O)N[C@@H](Cc2ccccc2)C(=O)N[C@@H](Cc2cnc[nH]2)C(=O)N[C@@H](C(C)C)C(=O)N2CCC[C@H]2C(=O)N1)C(C)C)C(=O)N[C@@H](CO)C(=O)N[C@@H](Cc1ccccc1)C(=O)O (H-CGAFHVPCYFVGRGGPISF-OH; disulfide 1-8)", "viability at 24 h, up to 100 µM": "> 90%"}
{"molecule": "CC[C@H](C)[C@H](NC(=O)CNC(=O)[C@@H](NC(=O)[C@H](Cc1ccccc1)NC(=O)[C@H](Cc1ccc(O)cc1)NC(=O)[C@@H]1CSSC[C@H](N)C(=O)NCC(=O)N[C@@H](C)C(=O)NCC(=O)N[C@@H](CCCCN)C(=O)N[C@@H](C(C)C)C(=O)N2CCC[C@H]2C(=O)N1)C(C)C)C(=O)NCC(=O)N[C@H](C(=O)N1CCC[C@H]1C(=O)N[C@H](C(=O)N[C@@H](CO)C(=O)N[C@@H](Cc1ccccc1)C(=O)N[C@@H](CCC(=O)O)C(=O)NCC(=O)O)[C@@H](C)CC)[C@@H](C)O (H-CGAGKVPCYFVGIGTPISFEG-OH; disulfide 1-8)", "viability at 24 h, up to 100 µM": "75%"}
{"molecule": "CC[C@H](C)[C@@H]1NC(=O)[C@@H]2CCCN2C(=O)CNC(=O)CNC(=O)[C@H](CCCNC(=N)N)NC(=O)CNC(=O)[C@H](C(C)C)NC(=O)[C@H](Cc2ccccc2)NC(=O)[C@H](Cc2ccc(O)cc2)NC(=O)[C@@H]2CSSC[C@H](NC(=O)[C@H](CCC(=O)O)NC1=O)C(=O)NCC(=O)N[C@@H](C)C(=O)NCC(=O)N[C@@H](Cc1cnc[nH]1)C(=O)N[C@@H](C(C)C)C(=O)N1CCC[C@H]1C(=O)N2 (cyclo(AGHVPCYFVGRGGPIECG); disulfide 6-17)", "viability at 24 h, up to 100 µM": "> 90%"}

###

assay.protocol: Cytotoxicity against human MCF7 cells assessed as cell viability at 3 uM after 24 hrs by MTT assay
Format: cell-based
settings: read-out: Activity

{"molecular.string": "COc1cccc2c1C(=O)c1c(O)c3c(c(O)c1C2=O)C[C@@](O)(C(=O)CO)C[C@@H]3O[C@H]1C[C@H](N)[C@H](O)[C@H](C)O1", "viability at 24 h, 3 µM / %": 20}

###

Entries and their measured viability at 24 h, up to 100 µM follow.
assay.protocol: Cytotoxicity against human MCF7 cells assessed as cell viability at 0.3 to 100 uM after 24 hrs by MTT assay
Format: cell-based
settings: read-out: Activity
Positions of bridges follow the written chain, without caps; N, C: chain ends. Residues, ends and D or L forms follow the SMILES beside them.
measured.parameter: viability at 24 h, up to 100 µM

{"compound": "CC[C@H](C)[C@@H]1NC(=O)[C@@H]2CCCN2C(=O)CNC(=O)CNC(=O)[C@H](CCCNC(=N)N)NC(=O)CNC(=O)[C@H](C(C)C)NC(=O)[C@H](Cc2ccccc2)NC(=O)[C@H](Cc2ccc(O)cc2)NC(=O)[C@@H]2CSSC[C@H](NC(=O)[C@H](CCC(=O)O)NC1=O)C(=O)NCC(=O)N[C@@H](C)C(=O)NCC(=O)N[C@@H](Cc1cnc[nH]1)C(=O)N[C@@H](C(C)C)C(=O)N1CCC[C@H]1C(=O)N2 (cyclo(AGHVPCYFVGRGGPIECG); disulfide 6-17)", "measured.value": "> 90%"}
{"compound": "CC[C@H](C)[C@H](NC(=O)[C@@H]1CCCN1C(=O)CNC(=O)CNC(=O)[C@H](CCCNC(=N)N)NC(=O)CNC(=O)[C@@H](NC(=O)[C@H](Cc1ccccc1)NC(=O)[C@H](Cc1ccc(O)cc1)NC(=O)[C@@H]1CSSC[C@H](N)C(=O)NCC(=O)N[C@@H](C)C(=O)N[C@@H](Cc2ccccc2)C(=O)N[C@@H](Cc2cnc[nH]2)C(=O)N[C@@H](C(C)C)C(=O)N2CCC[C@H]2C(=O)N1)C(C)C)C(=O)N[C@@H](CO)C(=O)N[C@@H](Cc1ccccc1)C(=O)O (H-CGAFHVPCYFVGRGGPISF-OH; disulfide 1-8)", "measured.value": "> 90%"}
{"compound": "CC[C@H](C)[C@H](NC(=O)CNC(=O)[C@@H](NC(=O)[C@H](Cc1ccccc1)NC(=O)[C@H](Cc1ccc(O)cc1)NC(=O)[C@@H]1CSSC[C@H](N)C(=O)NCC(=O)N[C@@H](C)C(=O)NCC(=O)N[C@@H](CCCCN)C(=O)N[C@@H](C(C)C)C(=O)N2CCC[C@H]2C(=O)N1)C(C)C)C(=O)NCC(=O)N[C@H](C(=O)N1CCC[C@H]1C(=O)N[C@H](C(=O)N[C@@H](CO)C(=O)N[C@@H](Cc1ccccc1)C(=O)N[C@@H](CCC(=O)O)C(=O)NCC(=O)O)[C@@H](C)CC)[C@@H](C)O (H-CGAGKVPCYFVGIGTPISFEG-OH; disulfide 1-8)", "measured.value": "75%"}
